- assayed-system: T1, SCRIB-34/4 (MBP fusion of the tandem of the third and fourth PDZ domains of SCRIB) (human, UniProt Q14160-1 997-1193)
- T1 construct: also called MBP-PDZ analyte SCRIB-34/4; tandem PDZ construct; source: E. coli BL21 DE3, purified (amylose column, Superdex 75 gel filtration)
- T1 sequence (looked up): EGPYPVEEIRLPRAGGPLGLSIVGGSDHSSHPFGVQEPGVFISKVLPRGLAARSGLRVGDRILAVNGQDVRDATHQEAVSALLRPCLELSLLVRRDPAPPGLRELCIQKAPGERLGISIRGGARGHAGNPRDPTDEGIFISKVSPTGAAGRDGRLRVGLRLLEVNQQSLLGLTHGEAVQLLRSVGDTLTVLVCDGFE
- experiment-description: SPR
- study-conditions: both partners purified
pKd: −log10 of the molar value. Ends that are not written are not given here. * marks the point of attachment. Biotin = O=C1N[C@H]2[C@H](CS[C@H]2CCCCC(=O)*)N1
Tick condition met if pKd is 5 or greater. Tick condition not met if pKd is less than 5.

Prompt: Does the binder Biotin-CNTVTVETVV (also called MAS long; source: synthetic peptide (JPT Peptide Technologies)) [MAS_10 (long peptide of Proto-oncogene Mas: the last ten residues)] have recorded pKd that is 5 or more?
Response: condition met
